# Tested on: ATP;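 note: ATP exposure 15 min at 22 °C before imaging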
# protocol text: switch fluorescence ratio, 500 uM ATP over buffer (Cy3 cluster intensity, sum of 5 cycles each) (fold (ratio)); higher = stronger signal-on switching upon ATP binding; sequences stand for … in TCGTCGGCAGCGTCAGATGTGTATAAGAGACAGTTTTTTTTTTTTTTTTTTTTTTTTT…TC
# measurement conditions: aptamer strand: ATP DNA aptamer (quencher-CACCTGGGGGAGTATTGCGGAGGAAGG + anchor), 100 nM annealed; ATP concentration: 500 uM
observation type: switch fluorescence ratio
Please reply with the number alone, leaving off any unit.

Data point: GGTTGAGTGG ; switch fluorescence ratio = 1

Lookup result for TTATACGTCG ; measured switch fluorescence ratio: 1.01

So for TGGCAGTCGG , the logged switch fluorescence ratio turned out to be 0.978

GET /value?item= TTAATTCGTC &field=switch fluorescence ratio returns 0.949

Lab book: switch fluorescence ratio of GGCGTTGGCT noted as 0.985

Memo: TGGGAAAGAA , reported switch fluorescence ratio: 1.04

Noted for TTTGGTTCTG : its switch fluorescence ratio reads 1.01

Query TTTACGGGAA yields switch fluorescence ratio of 1.05

Quick note, switch fluorescence ratio for GGGGGGGTAT landed at 1.01

The value of switch fluorescence ratio measured for the sequence CGTAGGGGTC turned out to be 0.959

Lookup result for TGCGGGGGCT ; measured switch fluorescence ratio: 1

switch fluorescence ratio for TGGGTTAAGA is 1.01

// switch fluorescence ratio lookup, sequence = TTTGAAGGG , result: 0.965

Memo: CATATGTTTT , reported switch fluorescence ratio: 1

Summary for this sequence, GTTTCGGGGG : switch fluorescence ratio is 0.99

TTCAAAATGT has a reported switch fluorescence ratio of 0.997

Documented switch fluorescence ratio of AAGTACGGCC : 1.16

In plain terms, CTTGGCAGGG has a documented switch fluorescence ratio of 0.99

Query AAATAATGCA yields switch fluorescence ratio of 0.986

The recorded switch fluorescence ratio for entry AAGGGGTTTT equals 1

Recorded switch fluorescence ratio (sequence CGATGAATTC ): 1.07

GET /value?item= GCAAGTTACG &field=switch fluorescence ratio returns 1.14

GET /value?item= GGTGAGGGCA &field=switch fluorescence ratio returns 0.99

Data point: AGTTTGACCT ; switch fluorescence ratio = 1.15

The reported switch fluorescence ratio of the sequence GGGAATTGTT was 0.977

Recorded switch fluorescence ratio (sequence CCCTTAGGGA ): 1.02

Recorded result, TCTCGGGGTG , switch fluorescence ratio: 1.04

Briefly, switch fluorescence ratio measured for TGAAAGGGAA : 0.99

# switch fluorescence ratio (sequence: ATCATGGAGG ) is 0.993

// recorded switch fluorescence ratio for GGGTTATCCT : 1.07

Reported switch fluorescence ratio ( TTAAAGGTTT ) = 1.01

AGTTATTATT has a reported switch fluorescence ratio of 0.963

The sequence identified as CATAAAAGAT registered its switch fluorescence ratio at 1.01

Data point: GCAGGTCGCG ; switch fluorescence ratio = 1.01

In plain terms, TGTAATTGGT has a documented switch fluorescence ratio of 1

Reported switch fluorescence ratio for GCCAGCCGTT was 1.01

switch fluorescence ratio recorded for this sequence, TTTTGGCGCG , is 1

Record TAGTTACACG . Reported switch fluorescence ratio: 1.01

Entry under test: CGAAGGCTGG . Its switch fluorescence ratio was 1

Query AAGCACTAGG yields switch fluorescence ratio of 1.19

TCCATAGTCG yielded switch fluorescence ratio of 1.03

In plain terms, TAACGCATCG has a documented switch fluorescence ratio of 0.989

Record GCTTTAATAA . Reported switch fluorescence ratio: 0.991
